- ASSAY TARGET: hNTS2 (Homo sapiens)
- Sequence (O95665 whole entry): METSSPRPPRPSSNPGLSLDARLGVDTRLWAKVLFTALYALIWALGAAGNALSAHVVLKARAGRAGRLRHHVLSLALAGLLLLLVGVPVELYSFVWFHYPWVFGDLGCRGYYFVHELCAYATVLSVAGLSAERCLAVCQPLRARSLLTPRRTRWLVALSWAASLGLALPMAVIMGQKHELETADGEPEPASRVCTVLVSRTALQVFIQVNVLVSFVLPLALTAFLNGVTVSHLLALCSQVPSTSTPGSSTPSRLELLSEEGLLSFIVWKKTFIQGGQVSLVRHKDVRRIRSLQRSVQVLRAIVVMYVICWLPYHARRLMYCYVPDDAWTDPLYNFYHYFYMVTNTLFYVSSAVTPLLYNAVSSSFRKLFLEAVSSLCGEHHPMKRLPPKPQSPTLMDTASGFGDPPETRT
- EXPERIMENT SUMMARY: Competitive radioligand binding assay, 125I-[Tyr3]-NT displacement, 1321N1 cell membranes
- CONDITION PARAMETERS: ratio of Ki hNTS1 to Ki hNTS2
Numbered stars: 1 amine (or outer) side, 2 acyl side, 3 side chain; on linkers, the order of the positions; unused ones are H or OH. Square brackets hold non-standard residues; d marks the D form. Peptide text beside a SMILES is read from it. X1 = NCCCC[C@H](N)CN([C@@H](CCCCN)C(=O)[*:2])[*:1]; Ala(SiMe3) = C[Si](C)(C)C[C@H](N)C(=O)O; Dmt = Cc1cc(O)cc(C)c1C[C@H](N)C(=O)O; Tle = CC(C)(C)[C@H](N)C(=O)O
RECORDED METRIC: NTS1/NTS2 selectivity
Keep it simple and answer with nothing but the number.

Hello, please tell me recorded NTS1/NTS2 selectivity for this one: CC[C@H](C)[C@H](NC(=O)[C@H](Cc1ccc(O)cc1)NC(=O)[C@@H]1CCCN1C(=O)[C@H](CCCCN)NC[C@@H](N)CCCCN)C(=O)N[C@@H](CC(C)C)C(=O)O [Compound 2, H-LysΨ[CH2NH]Lys-Pro-Tyr-Ile-Leu-OH] (H-[X1]PYIL-OH)
6

Hello, please tell me recorded NTS1/NTS2 selectivity for this one: CC[C@H](C)[C@H](NC(=O)[C@@H](Cc1c[nH]c2ccccc12)NC(=O)[C@@H]1CCCN1C(=O)[C@H](CCCCN)NC(=O)[C@@H](N)CCCCN)C(=O)N[C@@H](C[Si](C)(C)C)C(=O)O [Compound 13, H-Lys-Lys-Pro-D-Trp-Ile-TMSAla-OH] (H-KKP[dW]I[Ala(SiMe3)]-OH)
423

Hello, please tell me recorded NTS1/NTS2 selectivity for this one: CC[C@H](C)[C@H](NC(=O)[C@H](Cc1ccc(O)cc1)NC(=O)C1C[Si](C)(C)CN1C(=O)[C@H](CCCCN)NC[C@@H](N)CCCCN)C(=O)N[C@@H](CC(C)C)C(=O)O (stereo partly drawn) [Compound 6, H-Lysψ[CH2NH]Lys-Sip-Tyr-Ile-Leu-OH]
2.3

Hello, please tell me recorded NTS1/NTS2 selectivity for this one: Cc1cc(O)cc(C)c1C[C@H](NC(=O)[C@@H]1CCCN1C(=O)[C@H](CCCCN)NC(=O)[C@@H](N)CCCCN)C(=O)N[C@H](C(=O)N[C@@H](CC(C)C)C(=O)O)C(C)(C)C [Compound 15, H-Lys-Lys-Pro-Dmt-Tle-Leu-OH] (H-KKP[Dmt][Tle]L-OH)
24

Hello, please tell me recorded NTS1/NTS2 selectivity for this one: CC[C@H](C)[C@H](NC(=O)[C@H](CCCCN)NC(=O)[C@@H]1CCCN1C(=O)[C@H](CCCCN)NC(=O)[C@@H](N)CCCCN)C(=O)N[C@@H](C[Si](C)(C)C)C(=O)O [Compound 11, H-Lys-Lys-Pro-Lys-Ile-TMSAla-OH] (H-KKPKI[Ala(SiMe3)]-OH)
9.3

Hello, please tell me recorded NTS1/NTS2 selectivity for this one: CC[C@H](C)[C@H](NC(=O)[C@H](Cc1ccc(O)cc1)NC(=O)[C@@H]1CCCN1C(=O)[C@H](CCCCN)NC(=O)[C@@H](N)CCCCN)C(=O)N[C@@H](C[Si](C)(C)C)C(=O)O [Compound 3, H-Lys-Lys-Pro-Tyr-Ile-TMSAla-OH] (H-KKPYI[Ala(SiMe3)]-OH)
0.1

Hello, please tell me recorded NTS1/NTS2 selectivity for this one: CC[C@H](C)[C@H](NC(=O)[C@H](Cc1ccc(O)cc1)NC(=O)[C@@H]1CCCN1C(=O)[C@H](CCCCN)NC[C@@H](N)CCCCN)C(=O)N[C@@H](C[Si](C)(C)C)C(=O)O [Compound 4, H-Lysψ[CH2NH]Lys-Pro-Tyr-Ile-TMSAla-OH] (H-[X1]PYI[Ala(SiMe3)]-OH)
4.5
